Target: T1, Solute carrier family 35 member A5 (SLC35A5), eGFP fusion (human, UniProt Q9BS91 1-424)
T1 construct: SLC35A5, putative nucleotide sugar transporter; expressed from the plasmid pTag-GFP2-C-A5; FRET donor in every pair; In the pair A5 + A5 the second copy carried mRFP (pTag-RFP-C-SLC35A construct) in place of eGFP; also called pTag-GFP2-C-A5; source: HEK293T, transiently transfected, in living cells
T1 sequence (looked up): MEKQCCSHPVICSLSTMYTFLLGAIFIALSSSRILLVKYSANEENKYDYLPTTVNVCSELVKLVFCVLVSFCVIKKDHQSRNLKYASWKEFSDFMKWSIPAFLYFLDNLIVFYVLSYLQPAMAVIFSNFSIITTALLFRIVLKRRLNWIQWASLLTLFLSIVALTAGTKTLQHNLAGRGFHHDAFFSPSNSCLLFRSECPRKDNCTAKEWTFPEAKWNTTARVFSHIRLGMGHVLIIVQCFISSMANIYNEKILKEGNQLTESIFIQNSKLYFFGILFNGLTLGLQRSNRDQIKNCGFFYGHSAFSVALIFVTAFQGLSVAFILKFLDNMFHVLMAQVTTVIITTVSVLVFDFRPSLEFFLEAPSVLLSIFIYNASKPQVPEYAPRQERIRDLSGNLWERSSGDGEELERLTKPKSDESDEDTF
Assay: FRET or BRET; FLIM/FRET in living HEK293T cells transiently co-transfected, analysed 48 h after transfection in FluoroBrite DMEM; SLC35A5-eGFP as donor, mRFP-tagged SLC35A proteins as acceptors; eGFP lifetime of the donor alone 2.70 ns
Conditions: partners not purified
MEASURED PARAMETER: eGFP fluorescence lifetime of the donor with the acceptor (donor alone 2.70 ns)

| BINDER | UNIT INFO | OBSERVED |
| --- | --- | --- |
| UDP-galactose transporter (SLC35A2), ER splice variant, mRFP fusion (natural protein, UniProt P78381-1 1-396, looked up, SLC35A2, UDP-galactose transporter, the second splice variant, localised mainly to the ER (A2-ER); expressed from a pTag-RFP-C-SLC35A construct; FRET acceptor; also called second splice variant of SLC35A2; source: HEK293T, transiently transfected, in living cells) MAAVGAGGSTAAPGPGAVSAGALEPGTASAAHRRLKYISLAVLVVQNASLILSIRYARTLPGDRFFATTAVVMAEVLKGLTCLLLLFAQKRGNVKHLVLFLHEAVLVQYVDTLKLAVPSLIYTLQNNLQYVAISNLPAATFQVTYQLKILTTALFSVLMLNRSLSRLQWASLLLLFTGVAIVQAQQAGGGGPRPLDQNPGAGLAAVVASCLSSGFAGVYFEKILKGSSGSVWLRNLQLGLFGTALGLVGLWWAEGTAVATRGFFFGYTPAVWGVVLNQAFGGLLVAVVVKYADNILKGFATSLSIVLSTVASIRLFGFHVDPLFALGAGLVIGAVYLYSLPRGAAKAIASASASASGPCVHQQPPGQPPPPQLSSHRGDLITEPFLPKLLTKVKGS | ns | 2.31 |

All figures here come from paper PMC6359379.
